Consider the following compounds and their measured % displacement of [3H]T808 (10 nM) at 1 uM readings.
Tested on: native tau aggregates
Assay: TAU radioligand in vitro displacement assay ([3H]T808 autoradiography on human AD brain sections)
Format: binding
Conditions: compound 1 uM, radioligand [3H]T808 10 nM, 50 mM Tris pH 7.4, room temperature, 30 min
State just the number; it will be interpreted in %.

# input I am curious: what % displacement of [3H]T808 (10 nM) at 1 uM value has been reported for COc1ccc(-c2cn3ccc(N4CCC(F)CC4)nc3n2)cc1 [Example 3] ?
# output 87

# input I am curious: what % displacement of [3H]T808 (10 nM) at 1 uM value has been reported for Oc1cccc(-c2cn3ccc(N4CCC(F)CC4)nc3n2)c1 [Example 13] ?
# output 67

# input I am curious: what % displacement of [3H]T808 (10 nM) at 1 uM value has been reported for Cc1ccc(-c2cn3ccc(N4CCC(F)CC4)nc3n2)cc1 [Example 11] ?
# output 81

# input I am curious: what % displacement of [3H]T808 (10 nM) at 1 uM value has been reported for COc1cccc(-c2cn3ccc(N4CCN(CCF)CC4)nc3n2)c1.Cl [Example 20] ?
# output 51

# input I am curious: what % displacement of [3H]T808 (10 nM) at 1 uM value has been reported for FC1CCN(c2ccn3cc(-c4ccc5c(c4)OCCO5)nc3n2)CC1 [Example 8] ?
# output 72

---

Consider the following molecules and their measured % displacement of [3H]T808 (10 nM) at 10 nM readings.
Tested on: native tau aggregates
Assay: TAU radioligand in vitro displacement assay ([3H]T808 autoradiography on human AD brain sections)
Assay type: binding
Conditions: compound 10 nM, radioligand [3H]T808 10 nM, 50 mM Tris pH 7.4, room temperature, 30 min
State just the number; it will be interpreted in %.

Cc1ccc(-c2cn3ccc(N(C)CCF)nc3n2)cc1 | 16
Cc1cccc(-c2cn3ccc(N4CCC(CCF)CC4)nc3n2)c1 | 10
Oc1ccc(-c2cn3ccc(N4CCC4)nc3n2)cc1 | 25
COc1cccc(-c2cn3ccc(N4CCC(F)CC4)nc3n2)c1 | 33
COc1ccc(-c2cn3ccc(N4CCOCC4)nc3n2)cc1 | 16
Cc1cccc(-c2cn3ccc(N4CC(F)C4)nc3n2)c1 | 18
CNc1ccn2cc(-c3ccc(NC(C)=O)cc3)nc2n1 | 30
COc1cc(-c2cn3ccc(N4CCC4)nc3n2)ccc1C | 11
COc1ccc(-c2cn3ccc(N4CC[C@@H](F)C4)nc3n2)cc1 | 25
COc1ccc(-c2cn3ccc(N4CCC(F)CC4)nc3n2)cc1 | 31

# input I am curious: what % displacement of [3H]T808 (10 nM) at 10 nM value has been reported for CNc1ccn2cc(-c3ccc4c(c3)CC(=O)N4)nc2n1 ?
# output 18

# input I am curious: what % displacement of [3H]T808 (10 nM) at 10 nM value has been reported for COc1ccc(-c2cn3ccc(N(C)C4CC4)nc3n2)cc1 ?
# output 42

# input I am curious: what % displacement of [3H]T808 (10 nM) at 10 nM value has been reported for FCCC1CCN(c2ccn3cc(-c4ccc5c(c4)OCO5)nc3n2)CC1 ?
# output 9

# input I am curious: what % displacement of [3H]T808 (10 nM) at 10 nM value has been reported for COc1cccc(-c2cn3ccc(N4CCC(CCF)CC4)nc3n2)c1 ?
# output 10

# input I am curious: what % displacement of [3H]T808 (10 nM) at 10 nM value has been reported for CNc1ccn2cc(-c3ccccc3)nc2n1 ?
# output 37

# input I am curious: what % displacement of [3H]T808 (10 nM) at 10 nM value has been reported for CCN(CC)c1ccn2cc(-c3ccc(OC)cc3)nc2n1 ?
# output 19

# input I am curious: what % displacement of [3H]T808 (10 nM) at 10 nM value has been reported for CNc1ccn2cc(-c3ccc(O)c(OC)c3)nc2n1 ?
# output 18

# input I am curious: what % displacement of [3H]T808 (10 nM) at 10 nM value has been reported for CO[C@H]1CCN(c2ccn3cc(-c4ccccc4)nc3n2)C1 ?
# output 13

# input I am curious: what % displacement of [3H]T808 (10 nM) at 10 nM value has been reported for COc1ccc(-c2cn3ccc(N4CC(C)C4)nc3n2)cc1 ?
# output 20

# input I am curious: what % displacement of [3H]T808 (10 nM) at 10 nM value has been reported for CNc1ccn2cc(-c3ccc(C)c(OC)c3)nc2n1 ?
# output 21

# input I am curious: what % displacement of [3H]T808 (10 nM) at 10 nM value has been reported for FCCC1CCN(c2ccn3cc(-c4ccc(N5CCOCC5)cc4)nc3n2)CC1 ?
# output 10

---

System: native tau aggregates
Experiment: TAU radioligand in vitro displacement assay ([3H]T808 autoradiography on human AD brain sections)
Type: binding
Conditions: compound 10 nM, radioligand [3H]T808 10 nM, 50 mM Tris pH 7.4, room temperature, 30 min
Consider the following compounds and their measured % displacement of [3H]T808 (10 nM) at 10 nM readings.
State just the number; it will be interpreted in %.

Reference set (5 entries):
COc1cccc(-c2cn3ccc(N4CCOCC4)nc3n2)c1 [Example 41] | 16
FC1CN(c2ccn3cc(-c4ccccc4)nc3n2)C1 [Example 71] | 18
FC1CCN(c2ccn3cc(-c4ccc(N5CCCC5)cc4)nc3n2)CC1 [Example 14] | 18
CNc1ccn2cc(-c3ccc(OC)cc3)nc2n1 [Example 83] | 41
CNc1ccn2cc(-c3ccc(N(C)C)cc3)nc2n1 [Example 90] | 38

Consider the additional compound presented here.
# input I am curious: what % displacement of [3H]T808 (10 nM) at 10 nM value has been reported for COc1cccc(-c2cn3ccc(N4CCC4)nc3n2)c1 [Example 113] ?
# output 36

---

Consider the following compounds and their measured % displacement of [3H]T808 (10 nM) at 10 nM readings.
Tested on: native tau aggregates
Assay: TAU radioligand in vitro displacement assay ([3H]T808 autoradiography on human AD brain sections)
Type: binding
Conditions: compound 10 nM, radioligand [3H]T808 10 nM, 50 mM Tris pH 7.4, room temperature, 30 min
State just the number; it will be interpreted in %.

Reference set (3 entries):
COc1ccc(-c2cn3ccc(N4CC(F)C4)nc3n2)cc1 | 25
CNc1ccn2cc(-c3ccc(O)cc3)nc2n1 | 32
FC1CCN(c2ccn3cc(-c4ccccc4)nc3n2)CC1 | 19

Consider the additional compound presented here.
# input I am curious: what % displacement of [3H]T808 (10 nM) at 10 nM value has been reported for Cc1cccc(-c2cn3ccc(N4CCOCC4)nc3n2)c1 ?
# output 13

---

Test system: native tau aggregates
Assay: TAU radioligand in vitro displacement assay ([3H]T808 autoradiography on human AD brain sections)
Assay type: binding
Settings: compound 1 uM, radioligand [3H]T808 10 nM, 50 mM Tris pH 7.4, room temperature, 30 min
parameter: % displacement of [3H]T808 (10 nM) at 1 uM (%)
State just the number; it will be interpreted in %.

FC1CCN(c2ccn3cc(-c4ccsc4)nc3n2)CC1 [Example 63] | 70
CN(CCF)c1ccn2cc(-c3ccccc3)nc2n1 [Example 21] | 84
COc1cccc(-c2cn3ccc(N4CCC(F)CC4)nc3n2)c1 [Example 5] | 74

# input I am curious: what % displacement of [3H]T808 (10 nM) at 1 uM value has been reported for FC1CCN(c2ccn3cc(-c4ccc(N5CCOCC5)cc4)nc3n2)CC1 [Example 9] ?
# output 75

# input I am curious: what % displacement of [3H]T808 (10 nM) at 1 uM value has been reported for Cc1cccc(-c2cn3ccc(N4CCC(F)CC4)nc3n2)c1 [Example 10] ?
# output 79

# input I am curious: what % displacement of [3H]T808 (10 nM) at 1 uM value has been reported for FC1CCN(c2ccn3cc(-c4ccccc4)nc3n2)CC1 [Example 2] ?
# output 72

---

System: native tau aggregates
Test: TAU radioligand in vitro displacement assay ([3H]T808 autoradiography on human AD brain sections)
Format: binding
Settings: compound 10 nM, radioligand [3H]T808 10 nM, 50 mM Tris pH 7.4, room temperature, 30 min
Consider the following compounds and their measured % displacement of [3H]T808 (10 nM) at 10 nM readings.
State just the number; it will be interpreted in %.

Reference set (2 entries):
COc1ccc(-c2cn3ccc(N(C)CCF)nc3n2)cc1 | 33
COc1ccc(-c2cn3ccc(NC4CC4)nc3n2)cc1 | 43

# input I am curious: what % displacement of [3H]T808 (10 nM) at 10 nM value has been reported for CNc1ccn2cc(-c3cccc(OC)c3)nc2n1 ?
# output 40

The reported measurements were obtained from patent US9801961B2.
